test system: L. monocytogenes; assay type: cell-based, Listeria monocytogenes
Listed next: entries and their corresponding L. monocytogenes counts at 20 min.
Enter your answer as a number in log CFU/ml; do not include the unit.

Please review the following examples before continuing.
>  <compound>
CC(=O)CCC(=O)O [1.0% levulinic acid (pH 2.9), levulinic acid]

>  <L. monocytogenes counts at 20 min, log CFU/ml>
6.6

$$$$
>  <compound>
CC(=O)CCC(=O)O [2.0% levulinic acid (pH 2.8), levulinic acid]

>  <L. monocytogenes counts at 20 min, log CFU/ml>
6.9

$$$$

For reference, reported L. monocytogenes counts at 20 min for CC(=O)CCC(=O)O [1.5% levulinic acid (pH 2.8), levulinic acid] stands at 6.9

What the record says about CC(=O)CCC(=O)O [0.5% levulinic acid (pH 2.6), levulinic acid] : L. monocytogenes counts at 20 min is 6.7
